Molecular target: human CD33 P46A (human, UniProt P20138 18-364)
Sequence (P20138 18-364 P46A limits assumed): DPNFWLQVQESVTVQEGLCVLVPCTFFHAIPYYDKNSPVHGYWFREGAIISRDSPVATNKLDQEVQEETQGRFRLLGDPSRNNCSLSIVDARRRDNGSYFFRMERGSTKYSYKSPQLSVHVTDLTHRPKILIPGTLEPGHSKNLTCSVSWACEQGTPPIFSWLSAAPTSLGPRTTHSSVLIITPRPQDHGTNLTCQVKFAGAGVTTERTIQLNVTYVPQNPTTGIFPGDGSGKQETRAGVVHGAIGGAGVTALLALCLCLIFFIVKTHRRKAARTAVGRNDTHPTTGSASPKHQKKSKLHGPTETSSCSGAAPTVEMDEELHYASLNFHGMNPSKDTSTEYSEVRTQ
Experiment: alanine scan, flow cytometry;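 further: HEK293-T cells transiently expressing single-residue alanine mutants of CD33 (alanine swapped to serine), antibody binding read by fluorescence in duplicate, background-subtracted, expressed relative to wild-type CD33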
reportedMetric: Mean % WT Binding (% WT)
# output: bare number, implied unit % WT

Some binders with known Mean % WT Binding results, for comparison:
INSERT INTO assay_data (binder, unitofmeasure, assayresult) VALUES
  ('Refmab #1 (antibody, V domains shown, Full-length format is human IgG1 (Absolute Antibody Ab00283-10.0); The alanine scan used IgG or Fab; also called hP67.6) VH: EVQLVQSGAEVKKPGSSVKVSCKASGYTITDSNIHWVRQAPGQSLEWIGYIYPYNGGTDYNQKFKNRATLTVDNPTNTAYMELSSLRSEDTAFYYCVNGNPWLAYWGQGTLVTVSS VL: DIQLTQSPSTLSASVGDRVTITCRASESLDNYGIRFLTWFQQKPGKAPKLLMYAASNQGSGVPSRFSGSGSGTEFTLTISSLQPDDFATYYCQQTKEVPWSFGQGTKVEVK', '% WT', 64.8),
  ('Refmab #3 (antibody, V domains shown, Full-length format is human IgG1 Fc silent (PG-LALA); The alanine scan used IgG or Fab) VH: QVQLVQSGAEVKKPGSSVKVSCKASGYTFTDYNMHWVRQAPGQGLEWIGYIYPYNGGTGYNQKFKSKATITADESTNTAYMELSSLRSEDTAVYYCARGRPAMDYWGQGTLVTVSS VL: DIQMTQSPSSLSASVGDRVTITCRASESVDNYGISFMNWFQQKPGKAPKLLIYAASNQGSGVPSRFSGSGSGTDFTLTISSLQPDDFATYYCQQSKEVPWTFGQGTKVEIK', '% WT', 8.8),
  ('Refmab #2 (antibody, V domains shown, Full-length format is human IgG1 Fc silent (PG-LALA); The alanine scan used IgG or Fab) VH: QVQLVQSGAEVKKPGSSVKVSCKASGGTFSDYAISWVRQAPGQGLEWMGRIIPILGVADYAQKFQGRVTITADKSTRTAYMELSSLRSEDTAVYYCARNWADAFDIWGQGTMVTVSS VL: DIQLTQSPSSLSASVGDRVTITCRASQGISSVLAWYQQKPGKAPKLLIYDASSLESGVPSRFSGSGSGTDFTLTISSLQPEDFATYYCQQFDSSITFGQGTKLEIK', '% WT', 104);

Could you now look at the following binder, please?
Note Mean % WT Binding for the binder shown: Refmab #4 (antibody, V domains shown, Full-length format is human IgG1 Fc silent (PG-LALA); The alanine scan used IgG or Fab) VH: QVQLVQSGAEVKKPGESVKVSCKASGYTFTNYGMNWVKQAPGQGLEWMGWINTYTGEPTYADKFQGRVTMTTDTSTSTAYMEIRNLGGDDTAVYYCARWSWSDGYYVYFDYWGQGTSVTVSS VL: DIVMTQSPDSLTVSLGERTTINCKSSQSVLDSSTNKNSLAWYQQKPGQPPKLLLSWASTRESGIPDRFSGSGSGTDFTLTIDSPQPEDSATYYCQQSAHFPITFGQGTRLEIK
135
